# key: entry, value: POC (Percent of control) CHK2
- Target Or System: ProfilerPro Kinase Selectivity Assay Kit kinases (Homo sapiens)
- Assay type: biochemical
- Condition Summary: CHK2; 1 μM compound concentration
Readout Label: POC (Percent of control) CHK2 (POC)

>>> df
                                   compound  quantity_unit  reported_result
0  Cc1nc(-c2cccnc2Nc2cccc3[nH]ncc23)c2nc[nH]c2n1 [Example 57]            POC               98
1  Cc1nc(N)cc(-c2cccnc2Nc2cccc3[nH]ncc23)n1 [Example 27]            POC               97
2  COc1ccc(Nc2ncccc2-c2ncnc3[nH]cnc23)cn1 [Example 20]            POC              103
3  COc1ccc(Nc2ncccc2-c2nc(C)nc3[nH]cnc23)cn1 [Example 58]            POC               99
4  Cc1cnc(Nc2cccc3[nH]ccc23)c(-c2nc(C)nc(N)n2)c1 [Example 46]            POC              101
5  Cc1nc(N)nc(-c2cccnc2Nc2cccc3[nH]ccc23)n1 [Example 22]            POC              102

* * *

- Target Or System: human mutant B-raf (HuBraf V600E) (Homo sapiens (Human), UniProt P15056, V600E)
- Sequence (P15056 whole entry V600E): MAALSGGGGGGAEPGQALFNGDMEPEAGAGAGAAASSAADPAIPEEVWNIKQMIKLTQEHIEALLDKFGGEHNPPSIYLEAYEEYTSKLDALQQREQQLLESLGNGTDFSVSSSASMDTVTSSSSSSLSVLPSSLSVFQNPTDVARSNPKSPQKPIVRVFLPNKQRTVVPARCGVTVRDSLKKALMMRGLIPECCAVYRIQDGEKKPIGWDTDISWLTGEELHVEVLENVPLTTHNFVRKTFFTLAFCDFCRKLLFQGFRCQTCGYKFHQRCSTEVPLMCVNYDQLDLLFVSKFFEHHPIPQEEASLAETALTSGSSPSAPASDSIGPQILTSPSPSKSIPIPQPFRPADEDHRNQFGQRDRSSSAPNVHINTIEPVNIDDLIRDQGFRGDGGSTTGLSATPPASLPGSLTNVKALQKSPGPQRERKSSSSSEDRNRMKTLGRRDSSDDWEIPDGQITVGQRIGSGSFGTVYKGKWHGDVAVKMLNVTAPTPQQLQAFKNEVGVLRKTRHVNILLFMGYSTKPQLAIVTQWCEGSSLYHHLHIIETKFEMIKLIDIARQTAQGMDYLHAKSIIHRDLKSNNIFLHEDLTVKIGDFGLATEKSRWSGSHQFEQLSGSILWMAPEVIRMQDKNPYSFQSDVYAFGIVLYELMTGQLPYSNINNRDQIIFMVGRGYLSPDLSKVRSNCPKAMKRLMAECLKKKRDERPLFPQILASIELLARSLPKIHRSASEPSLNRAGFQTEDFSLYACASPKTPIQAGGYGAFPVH
- Condition Summary: at 10 μM compound concentration; POC = 100 − percent inhibition
# key: entry, value: Mutant B-raf HTRF Assay POC Mean n = 2
Readout Label: Mutant B-raf HTRF Assay POC Mean n = 2

>>> print(df.to_string())
                               smiles_input                          target_or_system        reported_result
0  COc1ccc(COCc2cnc(Nc3cccc4[nH]ccc34)c(-c3nc(C)nc4[nH]cnc34)c2)cc1  human mutant B-raf (HuBraf V600E) (Homo sapiens (Human), UniProt P15056, V600E)   75% of Control (POC)
1  Cc1nc(-c2cc(CO)cnc2Nc2cccc3[nH]ncc23)c2nc[nH]c2n1  human mutant B-raf (HuBraf V600E) (Homo sapiens (Human), UniProt P15056, V600E)   77% of Control (POC)
2       Cc1nc(N)nc(-c2cccnc2Nc2ccc(N)nc2)n1  human mutant B-raf (HuBraf V600E) (Homo sapiens (Human), UniProt P15056, V600E)   87% of Control (POC)
3  COc1ccc(Nc2ncc(CN3CCNCC3)cc2-c2nc(C)nc(N)n2)cn1  human mutant B-raf (HuBraf V600E) (Homo sapiens (Human), UniProt P15056, V600E)   96% of Control (POC)
4  Cc1nc(-c2cc(Br)cnc2Nc2cccc3[nH]ncc23)c2nc[nH]c2n1  human mutant B-raf (HuBraf V600E) (Homo sapiens (Human), UniProt P15056, V600E)  107% of Control (POC)

* * *

- Target Or System: ProfilerPro Kinase Selectivity Assay Kit kinases (Homo sapiens)
- Assay type: biochemical
- Condition Summary: ERK1; 1 μM compound concentration
Readout Label: POC (Percent of control) ERK1 (POC)

>>> df
                               smiles_input  reported_result
0  Cc1nc(N)cc(-c2cccnc2Nc2cccc3[nH]ncc23)n1              100
1  c1cnc(Nc2cccc3[nH]ncc23)c(-c2ncnc3[nH]cnc23)c1              104
2  COc1ccc(Nc2ncc(Cc3ccc(S(C)(=O)=O)cc3)cc2-c2nc(C)nc3[nH]cnc23)cn1              101
3  Cc1nc(-c2cccnc2Nc2cccc3[nH]ncc23)c2nc[nH]c2n1              100
4    COc1ccc(Nc2ncccc2-c2ncnc3[nH]cnc23)cn1               96
5  COc1ccc(Nc2ncccc2-c2nc(C)nc3[nH]cnc23)cn1              101
6  CCc1cnc(Nc2ccc(OC)nc2)c(-c2nc(C)nc3[nH]cnc23)c1               99
7       Cc1nc(N)nc(-c2cccnc2Nc2cccc(O)c2)n1              104
8  Cc1cnc(Nc2cccc3[nH]ccc23)c(-c2nc(C)nc(N)n2)c1               92

* * *

- Tested on: phosphorylation of Akt at Serine 473 in U87 MG cells
- Experiment Notes: cells
- Condition Summary: Homo sapiens, U-87 MG, 2 h, read-out: U87Cell IC50, pAkt (Ser 473), U87 MG cells, two hours with compound
Threshold-based label: IC50 under 300 nM gives Condition met, IC50 not under 300 nM gives Condition not met.

>>> print(df.to_string())
                                   compound     category_label
0  COc1cccc(NCc2cnc(Nc3ccc(OC)nc3)c(-c3nc(C)nc4[nH]cnc34)c2)c1 [Example 78]  Condition not met
1  COc1ccc(Nc2ncc(NCc3ccccc3)cc2-c2nc(C)nc3[nH]cnc23)cn1 [Example 91]  Condition not met
2  COc1ccc(Nc2ncc(-c3cn[nH]c3)cc2-c2nc(C)nc(N)n2)cn1 [Example 250]      Condition met
3  COc1ccc(Nc2ncc(CN3CCNCC3)cc2-c2nc(C)nc3[nH]cnc23)cn1 [Example 84]  Condition not met
4  c1cnc(Nc2cccc3[nH]ccc23)c(-c2ncnc3[nH]cnc23)c1 [Example 19]  Condition not met
5  Cc1nc(-c2cc(Cc3ccc(S(C)(=O)=O)cc3)cnc2Nc2ccc(N)nc2)c2nc[nH]c2n1 [Example 106]      Condition met
6  COc1ncc(Nc2ncc(CN3CCN(S(C)(=O)=O)C[C@@H]3C)cc2-c2nc(C)nc(N)n2)cn1 [Example 319]      Condition met

* * *

- Target Or System: PI3Kα (Homo sapiens (Human), UniProt P42336)
- Sequence (P42336 whole entry): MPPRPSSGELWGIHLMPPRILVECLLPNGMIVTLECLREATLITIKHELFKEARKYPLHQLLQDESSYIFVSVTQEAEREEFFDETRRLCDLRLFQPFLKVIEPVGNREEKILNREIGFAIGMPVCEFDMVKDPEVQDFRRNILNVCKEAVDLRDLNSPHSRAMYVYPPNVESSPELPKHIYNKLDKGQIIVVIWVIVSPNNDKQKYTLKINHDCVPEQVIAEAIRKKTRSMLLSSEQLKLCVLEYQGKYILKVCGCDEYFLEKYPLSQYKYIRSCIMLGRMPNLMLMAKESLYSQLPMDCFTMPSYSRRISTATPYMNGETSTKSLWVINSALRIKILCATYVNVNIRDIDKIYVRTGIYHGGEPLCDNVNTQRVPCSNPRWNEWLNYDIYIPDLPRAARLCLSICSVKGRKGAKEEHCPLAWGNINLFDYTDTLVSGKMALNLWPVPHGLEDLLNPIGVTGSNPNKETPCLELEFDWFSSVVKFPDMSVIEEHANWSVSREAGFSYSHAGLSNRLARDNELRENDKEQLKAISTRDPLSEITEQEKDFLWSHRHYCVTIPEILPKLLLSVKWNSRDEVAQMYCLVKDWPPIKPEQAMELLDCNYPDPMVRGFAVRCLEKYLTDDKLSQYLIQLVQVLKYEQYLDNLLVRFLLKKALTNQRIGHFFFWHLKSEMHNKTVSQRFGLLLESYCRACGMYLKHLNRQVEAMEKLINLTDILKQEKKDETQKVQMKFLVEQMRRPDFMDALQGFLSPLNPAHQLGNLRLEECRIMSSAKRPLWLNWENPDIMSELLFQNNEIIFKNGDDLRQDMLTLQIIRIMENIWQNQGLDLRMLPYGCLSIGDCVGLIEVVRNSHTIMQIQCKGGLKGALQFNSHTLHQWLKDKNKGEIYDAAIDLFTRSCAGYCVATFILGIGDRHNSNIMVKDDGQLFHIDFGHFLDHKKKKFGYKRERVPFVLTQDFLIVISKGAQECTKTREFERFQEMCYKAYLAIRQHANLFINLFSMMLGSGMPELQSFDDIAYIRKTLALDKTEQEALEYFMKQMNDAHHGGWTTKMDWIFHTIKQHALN
- Sequence (P27986 whole entry partner): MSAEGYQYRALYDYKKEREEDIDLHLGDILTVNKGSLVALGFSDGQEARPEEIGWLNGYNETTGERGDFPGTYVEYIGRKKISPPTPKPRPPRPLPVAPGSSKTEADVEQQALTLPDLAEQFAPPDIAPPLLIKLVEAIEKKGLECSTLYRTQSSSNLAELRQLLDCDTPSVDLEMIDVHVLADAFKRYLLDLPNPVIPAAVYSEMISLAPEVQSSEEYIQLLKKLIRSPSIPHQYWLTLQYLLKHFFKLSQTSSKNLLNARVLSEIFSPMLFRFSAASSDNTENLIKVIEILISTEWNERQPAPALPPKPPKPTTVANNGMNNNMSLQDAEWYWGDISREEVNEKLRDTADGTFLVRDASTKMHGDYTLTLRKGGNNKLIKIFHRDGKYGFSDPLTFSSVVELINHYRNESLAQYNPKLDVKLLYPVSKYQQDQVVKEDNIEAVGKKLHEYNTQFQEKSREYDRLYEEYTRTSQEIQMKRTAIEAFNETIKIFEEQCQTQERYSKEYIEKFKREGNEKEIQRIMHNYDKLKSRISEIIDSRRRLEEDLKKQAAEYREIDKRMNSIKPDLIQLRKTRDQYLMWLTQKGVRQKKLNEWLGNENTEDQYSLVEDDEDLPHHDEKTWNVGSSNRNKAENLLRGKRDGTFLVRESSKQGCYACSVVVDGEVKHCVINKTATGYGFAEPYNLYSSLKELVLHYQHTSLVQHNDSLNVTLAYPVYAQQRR
- Condition Summary: read-out: PI3Kα AlphaScreen ® Ki
pKi: −log10 of the molar value.
# key: entry, value: pKi
Readout Label: pKi

>>> df
                                   compound  reported_result
0     COc1ncc(Nc2ncccc2-c2nc(C)nc(N)n2)cc1F             7.72
1       Cc1cncc(Nc2ncccc2-c2nc(C)nc(N)n2)c1             6.34
2  COc1ccc(Nc2ccncc2-c2nc(C)nc3[nH]cnc23)cn1             6.60
3  Cc1nc(-c2cnccc2Nc2cccc3[nH]ncc23)c2nc[nH]c2n1             6.58
4  Cc1nc(-c2cccnc2Nc2cnc(Cl)c(NS(C)(=O)=O)c2)c2nc[nH]c2n1             8.30
5  COc1ccc(Nc2ncc(CCO)cc2-c2nc(C)nc3[nH]cnc23)cn1             7.64
6  COc1ncc(Nc2ncc(CN3CCOC[C@@H]3C)cc2-c2nc(C)nc(N)n2)cc1F             7.57
7  COc1ccc(Nc2ncc(C(C)N3CCN(S(C)(=O)=O)CC3)cc2-c2nc(C)nc(N)n2)cn1 (stereo not drawn)             8.15
8  COCCNC(=O)c1cnc(Nc2ccc(OC)nc2)c(-c2nc(C)nc(N)n2)c1             7.68

* * *

- Target Or System: ProfilerPro Kinase Selectivity Assay Kit kinases (Homo sapiens, UniProt P17612)
- Assay type: biochemical
- Condition Summary: PKA alpha; 1 μM compound concentration
# key: entry, value: POC (Percent of control) PKA alpha
Readout Label: POC (Percent of control) PKA alpha (POC)

>>> print(df.to_string())
                               smiles_input  reported_result
0       Cc1nc(N)nc(-c2cccnc2Nc2cccc(O)c2)n1               99
1  CCc1cnc(Nc2ccc(OC)nc2)c(-c2nc(C)nc3[nH]cnc23)c1              102
2  Cc1nc(N)nc(-c2cc(CN3CCN(S(C)(=O)=O)CC3)cnc2Nc2cccc(O)c2)n1              100
3  Cc1cnc(Nc2cccc3[nH]ccc23)c(-c2nc(C)nc(N)n2)c1              102
4  Cc1cnc(Nc2cccc3[nH]ncc23)c(-c2nc(C)nc(N)n2)c1               16
5  COc1ccc(Nc2ncc(Cc3ccc(S(C)(=O)=O)cc3)cc2-c2nc(C)nc3[nH]cnc23)cn1               99
6  Cc1nc(N)cc(-c2cccnc2Nc2cccc3[nH]ncc23)n1               84
7  Cc1nc(-c2cccnc2Nc2cccc3[nH]ncc23)c2nc[nH]c2n1              100
8  c1cnc(Nc2cccc3[nH]ncc23)c(-c2ncnc3[nH]cnc23)c1               97
